experiment: activity coefficient (dimensionless); of the first substance listed, at infinite dilution; xn = mol fraction of the nth substance listed; conditions: 343.15 K; 101 kPa; Liquid; Chromatography; x1 = 0
Readout label: activity coefficient
Answer as a number with no unit attached.

The recorded activity coefficient for entry CC1CCCCC1 [methylcyclohexane] + CC1(C)[C@@H]2CC[C@@]1(CS(=O)(=O)[O-])C(=O)C2.CCCCCCCCCCCCCC[N+](CCCCCC)(CCCCCC)CCCCCC equals 1.33

The recorded activity coefficient for entry C=CCCCC [hex-1-ene] + CC1(C)[C@@H]2CC[C@@]1(CS(=O)(=O)[O-])C(=O)C2.CCCCCCCCCCCCCC[N+](CCCCCC)(CCCCCC)CCCCCC equals 1.75

The recorded activity coefficient for entry CCCO [propan-1-ol] + CC1(C)[C@@H]2CC[C@@]1(CS(=O)(=O)[O-])C(=O)C2.CCCCCCCCCCCCCC[N+](CCCCCC)(CCCCCC)CCCCCC equals 0.26

The recorded activity coefficient for entry CCc1ccccc1 [ethylbenzene] + CC1(C)[C@@H]2CC[C@@]1(CS(=O)(=O)[O-])C(=O)C2.CCCCCCCCCCCCCC[N+](CCCCCC)(CCCCCC)CCCCCC equals 1.11

The recorded activity coefficient for entry C1COCCO1 [1,4-dioxane] + CC1(C)[C@@H]2CC[C@@]1(CS(=O)(=O)[O-])C(=O)C2.CCCCCCCCCCCCCC[N+](CCCCCC)(CCCCCC)CCCCCC equals 1

The recorded activity coefficient for entry CCCCCCCCCC [decane] + CC1(C)[C@@H]2CC[C@@]1(CS(=O)(=O)[O-])C(=O)C2.CCCCCCCCCCCCCC[N+](CCCCCC)(CCCCCC)CCCCCC equals 3.63

The recorded activity coefficient for entry C[N+](=O)[O-] [nitromethane] + CC1(C)[C@@H]2CC[C@@]1(CS(=O)(=O)[O-])C(=O)C2.CCCCCCCCCCCCCC[N+](CCCCCC)(CCCCCC)CCCCCC equals 0.7

The recorded activity coefficient for entry CCCC(C)=O [pentan-2-one] + CC1(C)[C@@H]2CC[C@@]1(CS(=O)(=O)[O-])C(=O)C2.CCCCCCCCCCCCCC[N+](CCCCCC)(CCCCCC)CCCCCC equals 1.07

The recorded activity coefficient for entry CCCCCCC [heptane] + CC1(C)[C@@H]2CC[C@@]1(CS(=O)(=O)[O-])C(=O)C2.CCCCCCCCCCCCCC[N+](CCCCCC)(CCCCCC)CCCCCC equals 2.14

The recorded activity coefficient for entry C#CCCCCC [1-heptyne] + CC1(C)[C@@H]2CC[C@@]1(CS(=O)(=O)[O-])C(=O)C2.CCCCCCCCCCCCCC[N+](CCCCCC)(CCCCCC)CCCCCC equals 1.17

The recorded activity coefficient for entry CC#N [acetonitrile] + CC1(C)[C@@H]2CC[C@@]1(CS(=O)(=O)[O-])C(=O)C2.CCCCCCCCCCCCCC[N+](CCCCCC)(CCCCCC)CCCCCC equals 0.89

The recorded activity coefficient for entry CCCCCC [hexane] + CC1(C)[C@@H]2CC[C@@]1(CS(=O)(=O)[O-])C(=O)C2.CCCCCCCCCCCCCC[N+](CCCCCC)(CCCCCC)CCCCCC equals 1.81

The recorded activity coefficient for entry ClCCl [dichloromethane] + CC1(C)[C@@H]2CC[C@@]1(CS(=O)(=O)[O-])C(=O)C2.CCCCCCCCCCCCCC[N+](CCCCCC)(CCCCCC)CCCCCC equals 0.22

The recorded activity coefficient for entry Cc1ccc(C)cc1 [1,4-dimethylbenzene] + CC1(C)[C@@H]2CC[C@@]1(CS(=O)(=O)[O-])C(=O)C2.CCCCCCCCCCCCCC[N+](CCCCCC)(CCCCCC)CCCCCC equals 1.17

The recorded activity coefficient for entry CCCCCCCCC [nonane] + CC1(C)[C@@H]2CC[C@@]1(CS(=O)(=O)[O-])C(=O)C2.CCCCCCCCCCCCCC[N+](CCCCCC)(CCCCCC)CCCCCC equals 3.24

The recorded activity coefficient for entry ClC(Cl)Cl [trichloromethane] + CC1(C)[C@@H]2CC[C@@]1(CS(=O)(=O)[O-])C(=O)C2.CCCCCCCCCCCCCC[N+](CCCCCC)(CCCCCC)CCCCCC equals 0.15

The recorded activity coefficient for entry CC(C)CO [2-methyl-1-propanol] + CC1(C)[C@@H]2CC[C@@]1(CS(=O)(=O)[O-])C(=O)C2.CCCCCCCCCCCCCC[N+](CCCCCC)(CCCCCC)CCCCCC equals 0.24

###

assay: activity coefficient (dimensionless); of the first substance listed, at infinite dilution; xn = mol fraction of the nth substance listed; conditions: 333.15 K; 101 kPa; Liquid; Chromatography; x1 = 0
Would you kindly list activity coefficient for each of these compounds?

The recorded activity coefficient for entry ClC(Cl)(Cl)Cl [tetrachloromethane] + CC1(C)[C@@H]2CC[C@@]1(CS(=O)(=O)[O-])C(=O)C2.CCCCCCCCCCCCCC[N+](CCCCCC)(CCCCCC)CCCCCC equals 0.51

The recorded activity coefficient for entry c1ccncc1 [pyridine] + CC1(C)[C@@H]2CC[C@@]1(CS(=O)(=O)[O-])C(=O)C2.CCCCCCCCCCCCCC[N+](CCCCCC)(CCCCCC)CCCCCC equals 0.49

The recorded activity coefficient for entry C[N+](=O)[O-] [nitromethane] + CC1(C)[C@@H]2CC[C@@]1(CS(=O)(=O)[O-])C(=O)C2.CCCCCCCCCCCCCC[N+](CCCCCC)(CCCCCC)CCCCCC equals 0.5
